Numbers sourced from paper PMC7750294.

- TESTED_ON: OATP1B1 (Homo sapiens, UniProt Q9Y6L6)
- Sequence (Q9Y6L6 whole entry): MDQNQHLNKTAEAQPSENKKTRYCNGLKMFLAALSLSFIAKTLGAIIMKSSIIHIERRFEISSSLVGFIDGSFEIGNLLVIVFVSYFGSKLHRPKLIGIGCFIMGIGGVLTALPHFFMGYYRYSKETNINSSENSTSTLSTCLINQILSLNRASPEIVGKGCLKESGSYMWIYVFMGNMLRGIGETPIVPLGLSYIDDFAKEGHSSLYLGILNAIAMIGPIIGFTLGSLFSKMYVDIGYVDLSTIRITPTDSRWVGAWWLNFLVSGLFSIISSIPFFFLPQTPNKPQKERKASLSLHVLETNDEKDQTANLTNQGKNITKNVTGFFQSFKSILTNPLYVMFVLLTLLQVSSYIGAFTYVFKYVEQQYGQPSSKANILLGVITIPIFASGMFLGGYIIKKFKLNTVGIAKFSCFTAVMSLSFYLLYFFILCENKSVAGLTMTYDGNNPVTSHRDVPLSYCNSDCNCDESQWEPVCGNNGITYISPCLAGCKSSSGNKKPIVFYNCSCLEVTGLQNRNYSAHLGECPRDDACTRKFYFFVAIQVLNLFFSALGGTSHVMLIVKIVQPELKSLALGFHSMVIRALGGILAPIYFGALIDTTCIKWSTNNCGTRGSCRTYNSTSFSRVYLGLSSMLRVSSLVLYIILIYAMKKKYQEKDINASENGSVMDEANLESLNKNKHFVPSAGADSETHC
- ASSAY_REMARKS: Inhibition of OATP1B1-mediated [3H]-E217βG accumulation in HEK293-OATP1B1 cells
- Type: cell-based
- RECORDED_CONDITIONS: read-out: Estimated IC50,unbound,OATP1B1; IC50,total 2.1 μM × fu,plasma 0.116
PROPERTY_MEASURED: pIC50
// pIC50 here means minus log10 of the molar concentration (mol/L)

Ask: Look up pIC50: CO[C@H]1/C=C/O[C@@]2(C)Oc3c(C)c(O)c4c(O)c(c(/C=N/N5CCN(C)CC5)c(O)c4c3C2=O)NC(=O)/C(C)=C\C=C\[C@H](C)[C@H](O)[C@@H](C)[C@@H](O)[C@@H](C)[C@H](OC(C)=O)[C@@H]1C
Reply: 6.62

====

As shown below, each of these compounds has a reported IC50 value.
- TESTED_ON: OATP1B1 (Homo sapiens, UniProt Q9Y6L6)
- ASSAY_REMARKS: Inhibition of OATP1B1-mediated [3H]-E217βG accumulation in HEK293-OATP1B1 cells
- Type: cell-based
- RECORDED_CONDITIONS: IC50,total against OATP1B1, 100% human plasma (pH 7.4); [3H]-E217βG 5 μM, 3 min; HEK293-OATP1B1
Quick note: give the figure in µM, leave out the unit.

CHEMICAL_STRING	IC50, µM
CO[C@H]1/C=C/O[C@@]2(C)Oc3c(C)c(O)c4c(O)c(c(/C=N/N5CCN(C)CC5)c(O)c4c3C2=O)NC(=O)/C(C)=C\C=C\[C@H](C)[C@H](O)[C@@H](C)[C@@H](O)[C@@H](C)[C@H](OC(C)=O)[C@@H]1C	2.1

Kindly review the next compound as well.
Ask: What measured IC50 is associated with CCCS(=O)(=O)Nc1ccc(F)c(C(=O)c2c[nH]c3ncc(-c4ccc(Cl)cc4)cc23)c1F on OATP1B1 (Homo sapiens, UniProt Q9Y6L6)?
Reply: 175

====

- TESTED_ON: OATP1B3 (Homo sapiens)
- ASSAY_REMARKS: Inhibition of OATP1B3-mediated [3H]-CCK-8 accumulation in HEK293-OATP1B3 cells
- RECORDED_CONDITIONS: IC50,total against OATP1B3, 100% human plasma (pH 7.4); [3H]-CCK-8 1 μM, 3 min; HEK293-OATP1B3
PROPERTY_MEASURED: pIC50
// pIC50 here means minus log10 of the molar concentration (mol/L)

Ask: Look up pIC50: CCCS(=O)(=O)Nc1ccc(F)c(C(=O)c2c[nH]c3ncc(-c4ccc(Cl)cc4)cc23)c1F
Reply: 3.64

====

- TESTED_ON: OATP1B3 (Homo sapiens, UniProt Q9NPD5)
- Sequence (Q9NPD5 whole entry): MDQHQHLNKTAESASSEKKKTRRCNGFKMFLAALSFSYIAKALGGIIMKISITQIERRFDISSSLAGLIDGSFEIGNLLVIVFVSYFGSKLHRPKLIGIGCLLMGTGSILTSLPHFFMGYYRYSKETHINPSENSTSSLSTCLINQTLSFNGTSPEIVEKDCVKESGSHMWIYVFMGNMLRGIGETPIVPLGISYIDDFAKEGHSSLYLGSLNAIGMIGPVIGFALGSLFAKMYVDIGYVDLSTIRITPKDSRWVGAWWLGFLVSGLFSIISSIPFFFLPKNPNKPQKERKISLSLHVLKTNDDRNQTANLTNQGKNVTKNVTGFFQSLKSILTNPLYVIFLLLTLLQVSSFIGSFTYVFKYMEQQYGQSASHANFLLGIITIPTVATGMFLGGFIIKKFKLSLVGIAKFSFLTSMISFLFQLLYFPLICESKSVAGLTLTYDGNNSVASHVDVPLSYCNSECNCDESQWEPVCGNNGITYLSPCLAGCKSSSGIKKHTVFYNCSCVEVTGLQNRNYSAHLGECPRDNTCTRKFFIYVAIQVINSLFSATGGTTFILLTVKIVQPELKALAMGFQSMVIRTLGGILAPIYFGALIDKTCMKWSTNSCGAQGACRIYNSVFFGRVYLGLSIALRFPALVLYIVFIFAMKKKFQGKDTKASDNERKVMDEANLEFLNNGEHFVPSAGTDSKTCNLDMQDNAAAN
- ASSAY_REMARKS: Inhibition of OATP1B3-mediated [3H]-CCK-8 accumulation in HEK293-OATP1B3 cells
- Format: cell-based
- RECORDED_CONDITIONS: human, HEK293 cells over-expressing OATP1B3 (HEK293-OATP1B3), pH 7.4, probe [3H]-CCK-8 (1 μM), IC50,total against OATP1B3, 100% human plasma (pH 7.4); [3H]-CCK-8 1 μM, 3 min; HEK293-OATP1B3
PROPERTY_MEASURED: IC50 at 3 min
Hey, just the number and the unit after it is fine.

Ask: What measured IC50 at 3 min is associated with CCCS(=O)(=O)Nc1ccc(F)c(C(=O)c2c[nH]c3ncc(-c4ccc(Cl)cc4)cc23)c1F [vemurafenib] on OATP1B3 (Homo sapiens, UniProt Q9NPD5)?
Reply: 232 µM

====

- ASSAY_REMARKS: Vemurafenib PBPK model parameters
- Parameters: species or system human
- RECORDED_CONDITIONS: human, oral, 960 mg
PROPERTY_MEASURED: Vd (L/kg)
Quick note: give the figure in L/kg, leave out the unit.

Ask: Look up Vd: CCCS(=O)(=O)Nc1ccc(F)c(C(=O)c2c[nH]c3ncc(-c4ccc(Cl)cc4)cc23)c1F
Reply: 0.9
